Overview of reported GI50 across a group of molecules:
# Test system: HCC 2998
# test_protocol: Antitumor activity against human HCC2998 cells
# Assay type: functional
A number alone suffices; assume µM.

                  molecule  data_value
0  O=c1[nH]cc(F)c(=O)[nH]1        1.58

Inquiry: Report GI50 for OC[C@H]1C[C@](O)(c2ccc(Cl)cc2)[C@@H](c2ccc(Cl)cc2)O1 (relative stereo) please.
Reply text: 24

Inquiry: Item under review: OC[C@H]1C[C@](O)(c2ccccc2Cl)[C@@H](c2ccccc2Cl)O1 (relative stereo) . Reported GI50?
Reply text: 29.5

====

# Test system: Malme-3M
# test_protocol: Antitumor activity against human MALME-3M cells
# Type: functional
compounds and their reported GI50
Please respond with the number in µM and leave the unit unwritten.

Example entries and their recorded answers appear below.
In [3]: df
Out[3]:
                                   compound  data_value
0  OC[C@H]1C[C@](O)(c2ccccc2Cl)[C@@H](c2ccccc2Cl)O1 (relative stereo)        21.4
1    O=c1[nH]cc(F)c(=O)[nH]1 [FLUOROURACIL]          20

Inquiry: Field request: GI50 | item: OC[C@H]1C[C@](O)(c2ccc(Cl)cc2)[C@@H](c2ccc(Cl)cc2)O1 (relative stereo)
Reply text: 21.4

====

# key: entry, value: GI50
# Test system: BT-549
# test_protocol: Antitumor activity against human BT549 cells
# Assay type: functional

>>> df
                                   compound  data_value
0  OC[C@H]1C[C@](O)(c2ccc(F)cc2)[C@@H](c2ccc(F)cc2)O1 (relative stereo)    > 100 µM
1  COc1ccc([C@H]2O[C@@H](CO)C[C@]2(O)c2ccc(OC)cc2)cc1 (relative stereo)    > 100 µM

Consider the additional compound presented here.
Inquiry: Look up GI50: CS(=O)(=O)c1ccc([C@H]2O[C@@H](CO)C[C@]2(O)c2ccc(S(C)(=O)=O)cc2)cc1 (relative stereo)
Reply text: > 100 µM

====

Some compounds, each annotated with its measured GI50.
# test_protocol: Antitumor activity against human NCI-H322 cells
# Type: functional

Guide cases for GI50, answers given:
                                   compound  data_value
0  CS(=O)(=O)c1ccc([C@H]2O[C@@H](CO)C[C@]2(O)c2ccc(S(C)(=O)=O)cc2)cc1 (relative stereo)    > 100 µM
1  OC[C@H]1C[C@](O)(c2ccc(F)cc2)[C@@H](c2ccc(F)cc2)O1 (relative stereo)    > 100 µM

Inquiry: Which value of GI50 has been reported for COc1ccc([C@H]2O[C@@H](CO)C[C@]2(O)c2ccc(OC)cc2)cc1 (relative stereo) in the records?
Reply text: > 100 µM

====

# System: A498
# test_protocol: Antitumor activity against human A498 cells
# Type: functional
Quick list: GI50 per entry.

The following compounds have reported results that may help.
                                   compound  data_value
0  COc1ccc([C@H]2O[C@@H](CO)C[C@]2(O)c2ccc(OC)cc2)cc1 (relative stereo)    > 100 µM
1  OC[C@H]1C[C@](O)(c2ccc(F)cc2)[C@@H](c2ccc(F)cc2)O1 (relative stereo)    > 100 µM

# evaluate next
Inquiry: May I ask what GI50 has been recorded for CS(=O)(=O)c1ccc([C@H]2O[C@@H](CO)C[C@]2(O)c2ccc(S(C)(=O)=O)cc2)cc1 (relative stereo) ?
Reply text: > 100 µM
